- Tested on: H1299 human non-small cell lung cancer cells
- Assay Remarks: Cell viability by cellular ATP levels (ViaLight), H1299 cells
- Format: cell-based
- Particulars: H1299, NSCLC; ATP levels 72 h post-treatment compared to untreated cells; read-out: IC50 of Compound 1 tartrate
Structures can show the parent of a compound that is named as a salt.
Experimental Endpoint: IC50 (nM)
Quick reminder: number only, in nM, skip the unit.

For the compound shown here, COC1=CC(c2cc3ccccc3[nH]2)=N/C1=C\c1[nH]c(C)cc1C [Compound 1 tartrate] , give the reported IC50.
500

----------
Please provide measured IC50 for the entries that follow.
- System: C33A cervical carcinoma cells
- Assay Remarks: cells
- Type: cell-based
- Particulars: Homo sapiens, C-33-A; C33A; cellular ATP levels as described in Example 2; read-out: IC50 (μM) C33A, Effect on Cancer Cells Viability
Quick reminder: number only, in µM, skip the unit.

For the compound shown here, COC1=CC(c2cc3ccccc3n2C(=O)C(C)C)=N/C1=C\c1[nH]c(C)cc1C [Compound 35] , give the reported IC50.
0.167

How about COC1=CC(c2cc3ccccc3[nH]2)=N/C1=C\c1[nH]ccc1OC [Compound 3] ?
0.52

How about COC1=CC(c2[nH]c3ccccc3c2C(=O)c2ccsc2)=N/C1=C\c1[nH]c(C)cc1C [Compound 12] ?
3.6

How about Cc1cc(C)c(/C=C2\N=C(c3cc4ccc(F)cc4[nH]3)C=C2OC(C)C)[nH]1 [Compound 45] ?
0.716
